Overview of reported IC50 across a group of compounds:
Biological target: Acetylcholinesterase (Torpedo californica)
Sequence (P04058 whole entry): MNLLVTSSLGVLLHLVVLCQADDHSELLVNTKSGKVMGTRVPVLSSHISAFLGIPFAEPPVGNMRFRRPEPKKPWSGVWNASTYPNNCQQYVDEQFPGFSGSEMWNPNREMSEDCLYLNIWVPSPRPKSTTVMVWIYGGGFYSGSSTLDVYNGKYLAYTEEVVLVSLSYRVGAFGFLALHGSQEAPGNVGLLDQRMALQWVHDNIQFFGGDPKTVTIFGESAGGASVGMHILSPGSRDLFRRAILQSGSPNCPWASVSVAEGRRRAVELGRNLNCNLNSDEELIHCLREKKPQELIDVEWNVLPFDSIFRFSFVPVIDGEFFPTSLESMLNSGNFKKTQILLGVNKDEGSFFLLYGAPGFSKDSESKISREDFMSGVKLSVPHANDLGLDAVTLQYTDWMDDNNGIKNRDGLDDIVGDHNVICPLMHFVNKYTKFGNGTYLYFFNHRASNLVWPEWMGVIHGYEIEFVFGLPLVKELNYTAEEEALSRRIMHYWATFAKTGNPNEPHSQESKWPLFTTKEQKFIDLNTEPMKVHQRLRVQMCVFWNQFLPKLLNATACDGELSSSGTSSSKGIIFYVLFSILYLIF
Please append the unit to your numeric answer.

COc1cc(C(=O)NCCCCC(=O)NNc2c3c(nc4ccccc24)CCCC3)cc(OC)c1OC	18.1 nM
COc1cc(C(=O)NNc2c3c(nc4ccccc24)CCCC3)cc(OC)c1OC	21.1 nM
COc1cc(C(=O)NCCCC(=O)NNc2c3c(nc4ccccc24)CCCC3)cc(OC)c1OC	26.3 nM
COc1cc(CCC(=O)NNc2c3c(nc4ccccc24)CCCC3)cc(OC)c1OC	40.1 nM

Pending compound:
Tell me reported IC50 for COc1cc(CCC(=O)NCC(=O)NNc2c3c(nc4ccccc24)CCCC3)cc(OC)c1OC , tested with Acetylcholinesterase (Torpedo californica).
40.1 nM
